Hello, the source for this data is PubChem BioAssay (NCI), in case you need it.

assay: NCI Yeast Anticancer Drug Screen. Data for the mec2-1 strain (AID 157)
reportedConditions: S. cerevisiae mec2-1 strain, at 50.0 µM, stronger effect = higher value
This is part of a sample that, as a whole, favours compounds with a hit. Of some 79,000 tested, about 15% had one in any assay.
Param threshold (-10%) applies to growth inhibition; output label 1 when value >= threshold, label 0 when value < threshold.

Would you please look over these solved cases?
{"compound": "COC(=O)NC1(NC(=O)OC)NC(=O)c2cc(OC)c(OC)cc2N1", "assignedCategory": "label 0"}
{"compound": "O=C(O)CN1C(=O)/C(=C\\c2ccc3ccccc3n2)SC1=S", "assignedCategory": "label 1"}
{"compound": "Nc1nc(-c2ccccc2)c(N=Nc2cc(Cl)ccc2Cl)s1", "assignedCategory": "label 1"}
{"compound": "Cc1nc(N)nc(N)c1N1CCN(c2ccc(C(=O)NC(C(=O)O)C(=O)O)cc2)CC1", "assignedCategory": "label 0"}
{"compound": "Cc1cc(OCc2nnc3n2S(=O)(=O)c2ccccc2N3C)ccc1Cl", "assignedCategory": "label 1"}
{"compound": "N#C/C(=C\\C=C\\c1ccccc1)C(N)=O", "assignedCategory": "label 0"}
{"compound": "C=CCc1cc(OC)c(O)c(C(=O)OCC)c1", "assignedCategory": "label 0"}
{"compound": "C=CCOC(=O)CC(=O)OCC=C", "assignedCategory": "label 1"}
{"compound": "[Cl][Pt+2][Cl].[NH-]CC(C[NH-])(Cc1ccccc1)Cc1ccccc1", "assignedCategory": "label 0"}
{"compound": "CN(C)CCC(O)(c1ccccc1)C(O)(CCN(C)C)c1ccccc1 (stereo not given)", "assignedCategory": "label 0"}

I'd appreciate it if you could say whether O=C1C2C3C=CC(O3)C2C(=O)N1N=C1CCCCC1 (stereo not given) has growth inhibition at least equal to -10%. label 1

I'd appreciate it if you could say whether COc1cc(OC)cc(C(=O)NN)c1 has growth inhibition at least equal to -10%. label 1

I'd appreciate it if you could say whether COc1ccc(/C=N/NS(=O)(=O)c2ccc(/C=C3\NC(=O)N(C)C3=O)cc2)cc1 has growth inhibition at least equal to -10%. label 1

I'd appreciate it if you could say whether CCC1=C(C)/C(=C/c2[nH]c(C)cc2C)N=C1C has growth inhibition at least equal to -10%. label 1

---

assay: NCI Yeast Anticancer Drug Screen. Data for the sgs1 mgt1 strain (AID 161);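 further: 0% = growth of cultures given vehicle only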
reportedConditions: S. cerevisiae sgs1 mgt1 strain, at 50.0 µM
Description: Growth inhibition of yeast strains with defined genetic alterations is measured as a screen for potential anti-cancer activity. Selected strains with alterations in DNA damage repair or cell cycle control were exposed to compounds and growth inhibition was measured relative to vehicle treated controls. The strain used in this assay is sgs1 mgt1
About 79,000 compounds went through this panel and 15% of them were active in at least one assay; those are over-represented in the sample as a whole. Activity calls are given as the source filed them. Cut-off read from the data, not from the text of the source: active = growth inhibition above about 70%; inactive = the rest.
Result category, one only: active, inactive

Called result for CN(C)c1ccc(C=C(c2ccc(N)cc2)c2ccc(N)cc2)cc1 inactive

Called result for O=C(CCN(CCC(=O)c1ccccc1)CCC(=O)c1ccccc1)c1ccccc1 inactive

Called result for CC1=Nc2nc(=N)nc3cccc(n23)N1 inactive

Called result for O=C1OC(=O)C2C1N=NC2(c1ccccc1)c1ccccc1 (centres undefined) inactive

Called result for CCCCCC(CN(C)C)C(=O)CC(SCC)c1ccccc1 (centres undefined) inactive

Called result for CNC(C)C#N (centres undefined) inactive

Called result for c1ccc(-c2sc(-c3ccccc3)c3c2C2CCC3C2)cc1 inactive

Called result for N=C1N=C(N)C(CCCOc2cc(Cl)ccc2Cl)(CCCOc2cc(Cl)ccc2Cl)C(N)=N1 active

Called result for CCOC(=O)/C(C#N)=C1/Sc2c(ncn(/N=C/c3ccc(OC)cc3)c2=O)N1c1ccccc1 inactive

Called result for NC(=O)NC12CC3CC(CC(F)(C3)C1)C2 inactive

Called result for O=C1CC2C(O)OC(O)C(C1)N2C(=O)OCC(Cl)(Cl)Cl (centres undefined) inactive

Called result for c1ccc2c(CN3CCCCC3)cccc2c1 inactive

Called result for CCOC(=O)Nc1ccc(C2SCCN2C(=O)NC)cc1 (centres undefined) inactive

Called result for O=C(O)c1ccc(NS(=O)(=O)Cc2ccccc2)cc1 inactive
